Tested on: MDA-MB-231 breast
assay_remarks: NCI tumour cell line growth inhibition, 48 h
property: GI50

# count of solved cases: 5
molecule=O=C1c2[nH]cc(CN3CCNCC3)c2C(=O)c2c1c(O)c1ccccc1c2O endpoint_value="1.51 µM"
molecule=CC(C)C[C@H](NC(=O)[C@H](CCc1ccccc1)NC(=O)CN1CCOCC1)C(=O)N[C@@H](Cc1ccccc1)C(=O)N[C@@H](CC(C)C)C(=O)[C@@]1(C)CO1 endpoint_value="< 0.0128 µM"
molecule="C=C(C=O)C1CC(=O)C(C(=O)OC)[C@@H]2O[C@@](C)(CC2=O)C[C@@H]2OC(=O)[C@]3(O[C@@H]23)[C@@H](C(=O)OC)C1 (some centres not stated)" endpoint_value="22.1 µM"
molecule=O=C1NC(=O)/C(=C/C=C/c2ccccc2)S1 endpoint_value="30.4 µM"
molecule=C=C(CN1CCN(c2ccccc2OC)CC1)c1ccc(C(=O)Nc2ccccc2N)cc1 endpoint_value="0.315 µM"

I have 3 molecules here; please give me GI50 for each one.
1. Cn1nc(C(F)(F)F)c(-c2ccc(Cl)c(C(F)(F)F)c2)c1-c1ccc(OCc2ccc(Cl)cc2)cc1O
2. O=C(NCc1cccnc1)/C(=C\c1ccc(Br)cc1)S(=O)(=O)c1ccccc1
3. COc1ccc(OC)c(-c2nc3sccn3c2/C=C2/C(=O)Nc3ccc(Cl)cc32)c1

1.59 µM
0.705 µM
20.3 µM

---

Could you please report measured TGI for the items listed next?
Test system: PC-3 prostate
assay_remarks: NCI tumour cell line growth inhibition, 48 h

molecule=CC1(C)N=C(N)N=C(N)N1c1cccc(C#N)c1 endpoint_value="> 100 µM"

I have 8 molecules here; please give me TGI for each one.
1. Nc1ccc2c(c1)C(=O)c1ccccc1-2
2. CC(CCC(=O)O)[C@H]1CCC2[C@H]3C(CC[C@@]21C)[C@@]1(C)CCC(O)C[C@H]1C[C@@H]3O (stereo partly specified)
3. OCC1OC(n2cnc3cccnc32)CC1O (stereo unspecified)
4. OC1CCCC1C(O)(C(F)(F)F)C(F)(F)F (stereo unspecified)
5. O=C(c1ccccc1Nc1ccnc(C(F)(F)F)c1)N1CCN(c2cccc(Cl)c2)CC1
6. C=C(CN1CCN(c2ccccc2OC)CC1)c1ccc(C(=O)Nc2ccccc2N)cc1
7. CC(C)(CO)CNc1nc(N)nc(Cl)c1N
8. CC(C)C[C@H](NC(=O)[C@H](CCc1ccccc1)NC(=O)CN1CCOCC1)C(=O)N[C@@H](Cc1ccccc1)C(=O)N[C@@H](CC(C)C)C(=O)[C@@]1(C)CO1

> 100 µM
> 100 µM
> 100 µM
> 100 µM
53 µM
> 50 µM
> 100 µM
0.305 µM

---

Tested on: RXF 393 renal
assay_remarks: NCI tumour cell line growth inhibition, 48 h
Please note: YES applies when TGI is 10 µM or greater, and NO applies otherwise.

compound="CC[C@]12C=CCN3CCC4(c5cc(N=Nc6ccccc6)c(OC)cc5N(C)[C@H]4[C@@](O)(C(=O)OC)[C@@H]1OC(C)=O)[C@@H]32 (some centres not stated)" label_value=YES

// inclusive: TGI at least 10 µM? input: O=C(O)c1c(O)c2cc(Br)ccc2oc1=O
YES

// inclusive: TGI at least 10 µM? input: COC(=O)c1sc(=S)sc1SCc1ccccc1CSc1sc(=S)sc1C(=O)OC
YES

// inclusive: TGI at least 10 µM? input: O=C(CC(O)(C(F)(F)F)C(F)(F)F)C(CCCl)C(O)(C(F)(F)F)C(F)(F)F (configuration not stated)
YES

// inclusive: TGI at least 10 µM? input: CC1(C)N=C(N)N=C(N)N1c1cccc(C#N)c1
YES

// inclusive: TGI at least 10 µM? input: COc1cc(-c2cc(-c3ccc(N(C)C)cc3)nc(N3CCOCC3)c2C#N)cc(OC)c1OC
NO

// inclusive: TGI at least 10 µM? input: O=C1NC(=O)/C(=C/C=C/c2ccccc2)S1
YES

// inclusive: TGI at least 10 µM? input: NCCCCCS(=O)(=O)O
YES

// inclusive: TGI at least 10 µM? input: CCCCCc1cc2c(cc1O)CC[C@@H]1[C@@H]2CC[C@]2(C)[C@@H](O)CC[C@@H]12
YES

// inclusive: TGI at least 10 µM? input: O=C1c2ccccc2C(=O)c2c1ccc(C(Br)Br)c2[N+](=O)[O-]
NO

// inclusive: TGI at least 10 µM? input: COc1ccc(C2(c3ccc(OC)cc3)OC(=O)c3cccc4cccc2c34)cc1
YES

Cited source: PubChem BioAssay (NCI)
